Data origin, for the record: ChEMBL document CHEMBL4706566

Molecular target: 5-hydroxytryptamine receptor 2A (Homo sapiens, UniProt P28223)
Sequence (P28223 whole entry): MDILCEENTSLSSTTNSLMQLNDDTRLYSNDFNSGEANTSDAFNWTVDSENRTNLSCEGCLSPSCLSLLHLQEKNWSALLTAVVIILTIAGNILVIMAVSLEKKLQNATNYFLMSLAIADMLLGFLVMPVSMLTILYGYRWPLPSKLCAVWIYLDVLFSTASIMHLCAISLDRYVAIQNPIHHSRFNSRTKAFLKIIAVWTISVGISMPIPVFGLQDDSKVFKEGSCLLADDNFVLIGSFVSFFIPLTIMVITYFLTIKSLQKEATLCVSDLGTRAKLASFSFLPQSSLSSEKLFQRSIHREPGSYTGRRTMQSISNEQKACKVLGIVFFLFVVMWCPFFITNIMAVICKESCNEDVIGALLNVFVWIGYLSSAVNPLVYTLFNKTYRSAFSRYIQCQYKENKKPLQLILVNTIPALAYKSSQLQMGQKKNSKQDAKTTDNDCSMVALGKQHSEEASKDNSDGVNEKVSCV
metricName: IC50 (nM)
Could you give me the number in nM? Just the number is fine.

Task: # return recorded IC50 for entry CN1CCN2c3c(cccc31)[C@@H]1CN(CCCC(=O)c3ccc(F)cc3)CC[C@@H]12 [LUMATEPERONE]
Output: 0.54

====

Assay: clinical
Conditions: human
metricName: half-life (h)
Kindly answer with a numeric value in h, unit omitted.

Task: Report half-life for `CCn1c(=O)c2c(nc(/C=C/c3ccc(OC)c(OC)c3)n2C)n(CC)c1=O`
Output: 64

====

Target: UniProt:P14416
Sequence (P14416 whole entry): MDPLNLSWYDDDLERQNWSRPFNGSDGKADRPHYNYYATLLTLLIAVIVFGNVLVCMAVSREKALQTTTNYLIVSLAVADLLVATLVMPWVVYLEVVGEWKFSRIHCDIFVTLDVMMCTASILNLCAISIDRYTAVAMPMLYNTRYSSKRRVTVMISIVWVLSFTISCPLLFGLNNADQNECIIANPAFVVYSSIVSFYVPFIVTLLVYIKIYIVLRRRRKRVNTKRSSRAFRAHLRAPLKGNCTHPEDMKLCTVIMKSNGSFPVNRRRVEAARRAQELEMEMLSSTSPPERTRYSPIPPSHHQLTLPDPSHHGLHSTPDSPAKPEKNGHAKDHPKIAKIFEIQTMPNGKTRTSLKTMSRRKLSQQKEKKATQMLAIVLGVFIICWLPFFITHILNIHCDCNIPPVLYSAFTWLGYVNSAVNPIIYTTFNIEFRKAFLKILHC
metricName: pIC50
Units for pIC50: none; it is -log10 of a concentration expressed in mol/L.

Task: Quote pIC50 with test system UniProt:P14416 for `CN1CCN2c3c(cccc31)[C@@H]1CN(CCCC(=O)c3ccc(F)cc3)CC[C@@H]12`
Output: 8.49
